From: PubChem BioAssay (NCATS)

# Method: BET inhibitor-based combinations targeting novel dependencies in MECOM-rearranged (r) AML: AML-191 cell line (AID 2202236; also: nearly all actives have a fitted effect of over 35% in size; also: potency is read from the fitted curve at half-maximal effect)
# Conditions used: AML-191 viability, CellTiter-Glo luminescence, 48 h; series mostly up to 46 µM
Records with an inconclusive call do not appear. Activity calls are given as the source filed them. Calls follow the shape of the dose curve; as a rule, active = well fitted inhibition curve with a large enough effect; inconclusive = small, poorly fitted or top-dose-only effect; inactive = flat fitted curve, though single readings scatter.
Property: Potency

line_notation=CCOC(=O)N[C@@H]1CC[C@@H]2[C@@H](C1)C[C@H]1C(=O)O[C@H](C)[C@H]1[C@H]2/C=C/c1ccc(-c2cccc(F)c2)cn1 result=inactive
line_notation=CC(=O)O/N=C1\C(=O)N(Cc2cc(Cl)ccc2Cl)c2ccc(Cl)cc21 result="2.35 µM (active)"
line_notation=COc1ccc(Cl)c(Nc2nc3ccccc3nc2NS(=O)(=O)c2cccc(NC(=O)C(C)(C)N)c2)c1 result="16.6 µM (active)"
line_notation=COc1ccc([C@@H]2CC(=O)c3c(O)cc(O[C@@H]4O[C@H](CO[C@@H]5O[C@@H](C)[C@H](O)[C@@H](O)[C@H]5O)[C@@H](O)[C@H](O)[C@H]4O)cc3O2)cc1O result=inactive

====

# Assay system: Retinal dehydrogenase 2 (Homo sapiens) (UniProt O94788)
# Method: qHTS for Inhibitors of the Aldehyde Dehydrogenase Family (ALDH1A2) Confirmation screens (AID 2061314); also: nearly all actives have a fitted effect of over 65% in size; also: potency is read from the fitted curve at half-maximal effect
# Conditions used: ALDH1A2 enzyme inhibition qHTS confirmation; series mostly up to 45.9 µM
Records with an inconclusive call do not appear. Calls of active or inactive are those of the source. Calls come from the whole dose curve; as a rule, active = well fitted inhibition curve with a large enough effect; inconclusive = small, poorly fitted or top-dose-only effect; inactive = no such curve, though single readings can be large or run the other way.
Property: Potency

line_notation=CCOC(=O)c1c(C)n(-c2ccc(OC)cc2)c2ccc(OC(=O)COc3ccccc3)cc12 result=inactive
line_notation=Cc1ccc(NC(=O)CSc2nc3ccccc3nc2N2CCOCC2)cc1 result="2.29 µM (active)"
line_notation=O=C1Cc2cc(S(=O)(=O)N3CCN(c4ccc(Br)cc4)CC3)ccc2N1 result="20.6 µM (active)"
line_notation=COc1ccc(C(=O)Nc2ccc(-c3cc(C(F)(F)F)nn3-c3ccccc3)cc2)cc1OC result=inactive
line_notation=CNc1sc(-c2cccc3ccccc23)nc1C#N result="11.3 µM (active)"

====

Below, each of the compounds is paired with its reported viability value.
# Method: BET inhibitor-based combinations targeting novel dependencies in MECOM-rearranged (r) AML: SET-2 cell line (AID 2202231);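 also: plate controls were DMSO treated cells for no effect and wells without cells for full effect; nearly all actives have a fitted effect of over 35% in size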
# Conditions used: SET-2 AML cells viability, CellTiter-Glo luminescence, 48 h; hits give low values, concentration not given here
Results filed as inconclusive are left out. Non-standard residues stand in square brackets, D forms with d. Residues, ends and D or L forms follow the SMILES beside them. *: point of attachment. Benzoyl(4-tBu) = CC(C)(C)c1ccc(C(=O)*)cc1; Lys(Et2) = CCN(CC)CCCC[C@H](N)C(=O)O
Property: viability (%)

compound="COC1CC(C(=O)c2ccc3c(N)ncc(-c4ccc(-c5cnn(C)c5)cc4)c3n2)C1 (stereo unspecified)" result=92.9
compound=C[N+](C)(C)CC(=O)O result=112
compound=NC(=O)c1ccc2nc(-c3ccc(C4(N)CCC4)cc3)c(-c3ccccc3)n2n1 result=98.4
compound=COc1cc2ncnc(Nc3cccc(Cl)c3F)c2cc1OC(=O)N1CCN(C)C[C@H]1C result=103
compound=CCC(=O)NS(=O)(=O)c1ccc(-c2c(-c3ccccc3)noc2C)cc1 result=114
compound="CCN(CC)CCCC[C@H](NC(=O)[C@H](CC(C)C)NC(=O)[C@H](C)NC(=O)[C@H](Cc1ccccc1)NC(=O)c1ccc(C(C)(C)C)cc1)C(=O)N[C@@H](CO)C(=O)OC ({Benzoyl(4-tBu)}-FAL[Lys(Et2)]S-OMe)" result=71.5
compound="OC1CCC([C@H](O)C[C@H]2c3c(F)cccc3-c3cncn32)CC1 (stereo partly specified)" result=118
compound=O=C([O-])C[O-].[Pt+2] result=115
compound=COc1ccc(S(=O)(=O)NCc2ccc(C(=O)NCCc3ccc(Cl)cn3)cc2)cc1 result=98
compound=OCCn1cc(-c2ccc3c(c2)CC/C3=N\O)c(-c2ccncc2)n1 result=102
compound=Cn1cc(-c2nc(N[C@@H]3CCCC[C@@H]3N)c(F)c3c2C(=O)NC3)cn1 result=112
compound="CC(C)C1CCC(C(=O)N[C@H](Cc2ccccc2)C(=O)O)CC1 (stereo partly specified)" result=115
compound=CC(C)=CCC[C@](C)(O[C@@H]1O[C@H](CO[C@@H]2O[C@H](CO)[C@@H](O)[C@H](O)[C@H]2O)[C@@H](O)[C@H](O)[C@H]1O)[C@H]1CC[C@]2(C)[C@@H]1[C@H](O)C[C@@H]1[C@@]3(C)CC[C@H](O[C@@H]4O[C@H](CO)[C@@H](O)[C@H](O)[C@H]4O[C@@H]4O[C@H](CO)[C@@H](O)[C@H](O)[C@H]4O)C(C)(C)[C@@H]3CC[C@]12C result=121
compound=CC(C)n1ncnc1-c1cn2c(n1)-c1ccc(O[C@@H](C)C(N)=O)cc1OCC2 result=99
compound="CC#Cc1cncc(-c2ccc3c(c2)[C@@]2(N=C(C)C(N)=N2)C2(CCC(OC)CC2)C3)c1 (stereo partly specified)" result=107
compound=NS(=O)(=O)c1ccc(Cc2c(-c3cccc(-c4ccccc4)c3)nn(-c3nc(C(=O)O)cs3)c2CC2CC2)cc1 result=106
